The compounds listed here are annotated with their MIC P. aeruginosa CCUG 59626.
- Tested on: Pseudomonas aeruginosa
- assay_comment: MIC, compound in combination with a second agent (broth microdilution)
- Assay type: cell-based
- study_conditions: 1:1 (wt:wt) combination with Rifampicin; MIC = total drug concentration; strain CCUG 59626
Bridge positions count the residues as written; N and C are the ends. Square brackets hold non-standard residues; d marks the D form. Peptide text beside a SMILES is read from it. * marks the point of attachment. ξ: configuration not given here. X18 = O=C([C@H]1CC[C@H](O)CC1)*; Thr(3ξ) = CC(O)[C@H](N)C(=O)O; 4Abz = Nc1ccc(C(=O)O)cc1; Dab = NCC[C@H](N)C(=O)O
Your answer should be a plain number; it is taken to be in micrograms/mL.

CC(C)C[C@@H]1NC(=O)[C@@H](Cc2ccccc2)NC(=O)[C@H](CCN)NC(=O)[C@@H](NC(=O)[C@H](CCN)NC(=O)[C@@H](NC(=O)[C@H]2CC[C@H](O)CC2)C(C)O)CCNC(=O)[C@H](C(C)O)NC(=O)[C@H](CCN)NC(=O)[C@H](CCN)NC1=O (some centres unmarked) [Example 25] (X18-[Thr(3ξ)][Dab][Dab][Dab][dF]L[Dab][Dab][Thr(3ξ)]; lactam 3-C); 0.5

Next up:
Exam item: What MIC P. aeruginosa CCUG 59626 value was documented for this compound, CC(C)C[C@@H]1NC(=O)[C@@H](Cc2ccccc2)NC(=O)[C@H](CCN)NC(=O)[C@@H](NC(=O)[C@H](CCN)NC(=O)[C@@H](NC(=O)c2ccc(N)cc2)C(C)O)CCNC(=O)[C@H](C(C)O)NC(=O)[C@H](CCN)NC(=O)[C@H](CCN)NC1=O (some centres unmarked) [Example 5, 4-Aminobenzoyl polymyxin B nonapeptide] (H-[4Abz][Thr(3ξ)][Dab][Dab][Dab][dF]L[Dab][Dab][Thr(3ξ)]; lactam 4-C) ?
Marked response: 0.25

====

- Test system: Escherichia coli
- assay_comment: MIC, compound in combination with a second agent (broth microdilution)
- Format: cell-based
- study_conditions: 1:1 (wt:wt) combination with Rifampicin; MIC = total drug concentration; strain NCTC9001
Counter-ions that a name gives are not always drawn. Numbered stars: 1 amine (or outer) side, 2 acyl side, 3 side chain; on linkers, the order of the positions; unused ones are H or OH. Bridge positions count the residues as written; N and C are the ends. Square brackets hold non-standard residues; d marks the D form. Peptide text beside a SMILES is read from it. * marks the point of attachment. ξ: configuration not given here. Acetyl(cis-4-NH-cyclohexyl) = O=C(C[C@H]1CC[C@@H](N[*:1])CC1)[*:2]; ξβ3hGly(cHex) = NC(CC(=O)*)C1CCCCC1; X12 = CC(C)C[C@H](N)[C@H](O)C(=O)*; Thr(3ξ) = CC(O)[C@H](N)C(=O)O; Dab = NCC[C@H](N)C(=O)O; Ahx = NCCCCCC(=O)O
Listed next: entries and their corresponding MIC E. coli NCTC9001.
The reply should contain only the number, in micrograms/mL.

CC(C)C[C@@H]1NC(=O)[C@@H](Cc2ccccc2)NC(=O)[C@H](CCN)NC(=O)[C@@H](NC(=O)[C@@H](CO)NC(=O)[C@@H](NC(=O)CC(N)C2CCCCC2)[C@@H](C)O)CCNC(=O)[C@H](C(C)O)NC(=O)[C@H](CCN)NC(=O)[C@H](CCN)NC1=O (stereo partly drawn) [Example 48, TFA salt] ({ξβ3hGly(cHex)}-T[dS][Dab][Dab][dF]L[Dab][Dab][Thr(3ξ)]; lactam 3-C); 0.5

Exam item: Which MIC E. coli NCTC9001 is listed for CC(C)C[C@H]1NC(=O)[C@H](CCN)NC(=O)[C@@H](NC(=O)[C@H](CCN)NC(=O)[C@@H](NC(=O)CC(N)C2CCCCC2)C(C)O)CCNC(=O)[C@H](C(C)O)NC(=O)[C@H](CCN)NC(=O)[C@H](CCN)NC(=O)[C@H](C(C)O)NC1=O (stereo partly drawn) [Example 50] ({ξβ3hGly(cHex)}-[Thr(3ξ)][Dab][Dab][Dab][dL][Thr(3ξ)][Dab][Dab][Thr(3ξ)]; lactam 3-C) ?
Marked response: 0.125

Exam item: Same read-out for CC(C)C[C@@H]1NC(=O)[C@@H](Cc2ccccc2)NC(=O)[C@H](CCN)NC(=O)[C@@H](NC(=O)[C@H](CCN)NC(=O)[C@@H](NC(=O)C[C@H]2CC[C@@H](N)CC2)C(C)O)CCNC(=O)[C@H](C(C)O)NC(=O)[C@H](CCN)NC(=O)[C@H](CCN)NC1=O (stereo partly drawn) [Example 36, trifluoroacetate salt] ({Acetyl(cis-4-NH-cyclohexyl)}-[Thr(3ξ)][Dab][Dab][Dab][dF]L[Dab][Dab][Thr(3ξ)]; lactam 3-C) ?
Marked response: 0.125

Exam item: What do you get for CC(C)C[C@@H]1NC(=O)[C@@H](Cc2ccccc2)NC(=O)[C@H](CCN)NC(=O)[C@@H](NC(=O)[C@H](CCN)NC(=O)[C@@H](NC(=O)CCCCCN)C(C)O)CCNC(=O)[C@H](C(C)O)NC(=O)[C@H](CCN)NC(=O)[C@H](CCN)NC1=O (some centres unmarked) [Example 2, 6-Aminohexanoyl polymyxin B nonapeptide] (H-[Ahx][Thr(3ξ)][Dab][Dab][Dab][dF]L[Dab][Dab][Thr(3ξ)]; lactam 4-C) ?
Marked response: 0.5

Exam item: Entry CC(C)C[C@@H]1NC(=O)[C@@H](Cc2ccccc2)NC(=O)[C@H](CCN)NC(=O)[C@@H](NC(=O)[C@H](CCN)NC(=O)[C@@H](NC(=O)[C@@H](O)[C@@H](N)CC(C)C)C(C)O)CCNC(=O)[C@H](C(C)O)NC(=O)[C@H](CCN)NC(=O)[C@H](CCN)NC1=O (some centres unmarked) [Example 41, trifluoroacetate salt] (X12-[Thr(3ξ)][Dab][Dab][Dab][dF]L[Dab][Dab][Thr(3ξ)]; lactam 3-C) please
Marked response: 0.125

====

- System: Pseudomonas aeruginosa
- assay_comment: MIC, compound in combination with a second agent (broth microdilution)
- Assay type: cell-based
- study_conditions: 1:1 (wt:wt) combination with Rifampicin; MIC = total drug concentration; strain CCUG 59626
Structures can show the parent of a compound that is named as a salt. Bridge positions count the residues as written; N and C are the ends. Square brackets hold non-standard residues; d marks the D form. Peptide text beside a SMILES is read from it. * marks the point of attachment. ξ: configuration not given here. X24 = O=C(CCN1CCS(=O)(=O)CC1)*; Thr(3ξ) = CC(O)[C@H](N)C(=O)O; Dab = NCC[C@H](N)C(=O)O; X23 = O=C(CCCN1CCOCC1)*; Inp = O=C(O)C1CCNCC1; X4 = NC1CCCC1C(=O)*; Ahx = NCCCCCC(=O)O
Reported MIC P. aeruginosa CCUG 59626 values are given for each entry in this list.
Please state the figure in micrograms/mL; there is no need to write the unit.

Known MIC P. aeruginosa CCUG 59626 results, listed for orientation:
CC(C)C[C@@H]1NC(=O)[C@@H](Cc2ccccc2)NC(=O)[C@H](CCN)NC(=O)[C@@H](NC(=O)[C@H](CCN)NC(=O)[C@@H](NC(=O)C2CCCC2N)C(C)O)CCNC(=O)[C@H](C(C)O)NC(=O)[C@H](CCN)NC(=O)[C@H](CCN)NC1=O (stereo partly drawn) [Example 7] (X4-[Thr(3ξ)][Dab][Dab][Dab][dF]L[Dab][Dab][Thr(3ξ)]; lactam 3-C); 0.125
CC(C)C[C@@H]1NC(=O)[C@@H](Cc2ccccc2)NC(=O)[C@H](CCN)NC(=O)[C@@H](NC(=O)[C@H](CCN)NC(=O)[C@@H](NC(=O)C2CCNCC2)C(C)O)CCNC(=O)[C@H](C(C)O)NC(=O)[C@H](CCN)NC(=O)[C@H](CCN)NC1=O (stereo partly drawn) [Example 29] (H-[Inp][Thr(3ξ)][Dab][Dab][Dab][dF]L[Dab][Dab][Thr(3ξ)]; lactam 4-C); 0.125
CC(C)C[C@@H]1NC(=O)[C@@H](Cc2ccccc2)NC(=O)[C@H](CCN)NC(=O)[C@@H](NC(=O)[C@H](CCN)NC(=O)[C@@H](NC(=O)CCCN2CCOCC2)C(C)O)CCNC(=O)[C@H](C(C)O)NC(=O)[C@H](CCN)NC(=O)[C@H](CCN)NC1=O (stereo partly drawn) [Example 14, trifluoroacetate salt] (X23-[Thr(3ξ)][Dab][Dab][Dab][dF]L[Dab][Dab][Thr(3ξ)]; lactam 3-C); 0.5
CC(C)C[C@@H]1NC(=O)[C@@H](Cc2ccccc2)NC(=O)[C@H](CCN)NC(=O)[C@@H](NC(=O)[C@H](CCN)NC(=O)[C@@H](NC(=O)CCN2CCS(=O)(=O)CC2)C(C)O)CCNC(=O)[C@H](C(C)O)NC(=O)[C@H](CCN)NC(=O)[C@H](CCN)NC1=O (stereo partly drawn) [Example 12] (X24-[Thr(3ξ)][Dab][Dab][Dab][dF]L[Dab][Dab][Thr(3ξ)]; lactam 3-C); 0.5

Alright, here's another compound for you.
Exam item: Any idea what MIC P. aeruginosa CCUG 59626 was measured for CC(C)C[C@@H]1NC(=O)[C@@H](Cc2ccccc2)NC(=O)[C@H](CCN)NC(=O)[C@@H](NC(=O)[C@H](CCN)NC(=O)[C@@H](NC(=O)CCCCCN)C(C)O)CCNC(=O)[C@H](C(C)O)NC(=O)[C@H](CCN)NC(=O)[C@H](CCN)NC1=O (stereo partly drawn) [Example 2, 6-Aminohexanoyl polymyxin B nonapeptide] (H-[Ahx][Thr(3ξ)][Dab][Dab][Dab][dF]L[Dab][Dab][Thr(3ξ)]; lactam 4-C) ?
Marked response: 0.125
